# PROCEDURE_DETAILS: Protein binding in cynomolgus monkey plasma after 30 mins by ultra-filtration method
# Assay type: ADME, cell-free, Macaca fascicularis
# RUN_PARAMETERS: read-out: PPB (converted)

# COMPOUND, fraction unbound at 0.5 h
rows = [
    ("CCO/N=C(\\C(=O)N[C@@H]1C(=O)N2C(C(=O)[O-])=C(/C=C/C[n+]3cccc(/C([O-])=N/C#N)c3)CS[C@H]12)c1csc(N)n1.[Na+]", 0.67),
    ("CCO/N=C(\\C(=O)N[C@@H]1C(=O)N2C(C(=O)[O-])=C(/C=C/C[n+]3ccc4sc(/C([O-])=N/C#N)nc4c3)CS[C@H]12)c1csc(N)n1.[Na+]", 0.16),
    ("CCO/N=C(\\C(=O)N[C@@H]1C(=O)N2C(C(=O)[O-])=C(/C=C/C[n+]3ccc(-c4c[nH]c(/C([O-])=N/C#N)c4)cc3)CS[C@H]12)c1csc(N)n1.[Na+]", 0.3),
    ("CO/N=C(\\C(=O)N[C@@H]1C(=O)N2C(C(=O)O)=C(CSc3nc(=O)c(=O)[nH]n3C)CS[C@H]12)c1csc(N)n1 [CEFTRIAXONE]", 0.05),
    ("CCO/N=C(\\C(=O)N[C@@H]1C(=O)N2C(C(=O)[O-])=C(/C=C/C[n+]3ccc(-c4csc(/C([O-])=N/C#N)c4)cc3)CS[C@H]12)c1csc(N)n1.[Na+]", 0.36),
    ("CCO/N=C(\\C(=O)N[C@@H]1C(=O)N2C(C(=O)[O-])=C(/C=C/C[n+]3cccc4cc(/C([O-])=N/C#N)ccc43)CS[C@H]12)c1csc(N)n1.[Na+]", 0.63),
    ("CCO/N=C(\\C(=O)N[C@@H]1C(=O)N2C(C(=O)[O-])=C(/C=C/C[n+]3ccc(/C([O-])=N/C#N)cc3)CS[C@H]12)c1csc(N)n1.[Na+]", 0.59),
    ("CCO/N=C(\\C(=O)N[C@@H]1C(=O)N2C(C(=O)[O-])=C(/C=C/C[n+]3ccc(-c4cc(/C([O-])=N/C#N)n(C)n4)cc3)CS[C@H]12)c1csc(N)n1.[Na+]", 0.41),
    ("CCO/N=C(\\C(=O)N[C@@H]1C(=O)N2C(C(=O)[O-])=C(/C=C/C[n+]3ccc(-c4cc(/C([O-])=N/C#N)n(C)c4)cc3)CS[C@H]12)c1csc(N)n1.[Na+]", 0.23),
    ("CCO/N=C(\\C(=O)N[C@@H]1C(=O)N2C(C(=O)[O-])=C(/C=C/C[n+]3ccc(-n4ccc(/C([O-])=N/C#N)n4)cc3)CS[C@H]12)c1csc(N)n1.[Na+]", 0.14),
    ("CCO/N=C(\\C(=O)N[C@@H]1C(=O)N2C(C(=O)[O-])=C(/C=C/C[n+]3ccc(-c4nc(/C([O-])=N/C#N)cs4)cc3)CS[C@H]12)c1csc(N)n1.[Na+]", 0.27),
    ("CCO/N=C(\\C(=O)N[C@@H]1C(=O)N2C(C(=O)[O-])=C(/C=C/C[n+]3cccc4cc(/C([O-])=N/C#N)[nH]c43)CS[C@H]12)c1csc(N)n1.[Na+]", 0.06),
    ("CCO/N=C(\\C(=O)N[C@@H]1C(=O)N2C(C(=O)[O-])=C(/C=C/C[n+]3ccc(-c4cc(/C([O-])=N/C#N)[nH]n4)cc3)CS[C@H]12)c1csc(N)n1.[Na+]", 0.27),
    ("CCO/N=C(\\C(=O)N[C@@H]1C(=O)N2C(C(=O)[O-])=C(/C=C/C[n+]3ccc4c(/C([O-])=N\\C#N)cccc4c3)CS[C@H]12)c1csc(N)n1.[Na+]", 0.42),
    ("CCO/N=C(\\C(=O)N[C@@H]1C(=O)N2C(C(=O)[O-])=C(/C=C/C[n+]3ccc(-c4c[nH]c(/C([O-])=N/C#N)c4C)cc3)CS[C@H]12)c1csc(N)n1.[Na+]", 0.16),
    ("CCO/N=C(\\C(=O)N[C@@H]1C(=O)N2C(C(=O)[O-])=C(/C=C/C[n+]3ccc4[nH]c(/C([O-])=N/C#N)cc4c3)CS[C@H]12)c1csc(N)n1.[Na+]", 0.33),
    ("CCO/N=C(\\C(=O)N[C@@H]1C(=O)N2C(C(=O)[O-])=C(/C=C/C[n+]3ccc(-c4cc(/C([O-])=N/C#N)on4)cc3)CS[C@H]12)c1csc(N)n1.[Na+]", 0.06),
    ("CCO/N=C(\\C(=O)N[C@@H]1C(=O)N2C(C(=O)[O-])=C(/C=C/C[n+]3cccc4[nH]c(/C([O-])=N/C#N)cc43)CS[C@H]12)c1csc(N)n1.[Na+]", 0.4),
    ("CCO/N=C(\\C(=O)N[C@@H]1C(=O)N2C(C(=O)[O-])=C(/C=C/C[n+]3ccc(-c4csc(/C([O-])=N/C#N)n4)cc3)CS[C@H]12)c1csc(N)n1.[Na+]", 0.23),
]
